Biological target: T1, LAIR1 on LAIR1 reporter cells (human, UniProt Q6GTX8 22-165, limits assumed); note: test concentration or dose not given here
T1 chain: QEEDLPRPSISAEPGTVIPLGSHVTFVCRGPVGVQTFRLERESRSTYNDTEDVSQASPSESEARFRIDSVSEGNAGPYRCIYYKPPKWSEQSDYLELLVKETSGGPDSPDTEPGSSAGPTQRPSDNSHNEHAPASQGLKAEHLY
Assay: cell-based or functional assay
Quick list: GFP+% of LAIR1 reporter cells, collagen I coated, soluble Ab per entry.

binder: LA-64 (antibody, V domains shown, Rabbit monoclonal IgG; also called mAb LA-64) VH: EQSLESGGGLITPGGTLTLTCTASGFTVTRYYMNWVRQAPGKGLEWIGYIYASSKTYYANWAKGRFTISKTSTTVDLKMTSLTAEDTGTYFCARGGVGNSGLNLDLWGPGTLVTISS VL: ELVLTQTPASVSEPVGGTVTIKCQASQSIGSWLAWYQQKPGQPPKLLIYQASRLASGVSSRFGGSGSGTEFTLTISDLECADAATYYCQQAEYSGDVENTFGGGTEVVVK
data-value: 1.5%

binder: LA-87 (antibody, V domains shown, Rabbit monoclonal IgG; also called mAb LA-87) VH: QSVKESGGRLVTPGGSLTLTCTVSGFSLSNYNIQWVRQAPGKGLEWIGFISPAGNGYYASWAKGRFTISKASSTTVELKMTSLTASDTATYFCARHWDLWGPGTLVTISS VL: ELVLTQTASSVSAAVGGTVTISCQSSQSVYSNYLSWFQQKPGQPPKELVYWTSTLQSGVPSRFSGSGSGTQFTLTISDLECDDAATYYCLGGYSGWFYAFGGGTEVVVK
data-value: 1.45%

Now let's try a different one.
Suppose we examine the binder LA-95 (antibody, V domains shown, Rabbit monoclonal IgG; also called mAb LA-95) VH: EQSLKESGGRLVTPGGSLTLTCTASGFDINNYNIQWVRQAPGKGLEWIGFISPAGNEYSATWAKGRFTIYKTSSTTVELKMTSLTASDTATYFCARHWDSWGPGTLVTISS VL: ELVMTQTESPVSAAVGGTVTISCQSSQSVYSNRLSWFQQKPGQPPKELVYWTSTLQSGVPSRFSGSGSGTQFTLTISDLECDDAATYYCLGGYSGNIYVFGGGTEVEIK ; what GFP+% of LAIR1 reporter cells, collagen I coated, soluble Ab value has been reported?
0.711%

Hello, the source for this data is patent US20190338026A1, in case you need it.
